target.entity: T1, 4H918-bA
T1 chain: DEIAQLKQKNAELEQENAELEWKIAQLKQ
method.summary: two-hybrid library CCNG1;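 note: natural log of median RNA to DNA barcode read ratio; higher means stronger binding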
reported.endpoint: interaction score

binder: DEIAQLEQKNAELKQEIAELEWKIAQLKQ [4H454-bA]
interaction score: -0.912

(I) DEIAQLEQKNAELKQEIAELKWEIAQLEQ [4H457-bA]
(II) DKNAQLKQENAELKQEIAELEWKIAQLKQ [4H3782-bA]
(III) DENAQLEQENAELEQEIAELEWKIAQLKQ [4H1158-bA]
Asked: Task for the reader: rank each entry by its interaction score, from the minimum upward. Rank the items, then write their labels in that order.
Given back: II, I, III
